# run description: Plasma pharmacokinetics after intraperitoneal injection in mouse (UPLC-MS/MS)
# Format: in vivo
# experimental context: male, ICR, plasma, 10 mg/kg; mouse, IP, according to the above method; read-out: AUC(0-t)
observable: AUC(0-t) (ng·h/mL)

Noted for [2H]C1[C@H]2CC[C@]3(C)CC([2H])([2H])C=C(CCCC(F)(F)F)[C@@]13OC2(C)C (some centres unmarked) [Compound 8] : its AUC(0-t) reads 148

Noted for CC1(C)O[C@]23C[C@H]1CC[C@]2(C)CCC=C3CCCCC(F)(F)F [Compound 6] : its AUC(0-t) reads 142

###

# run description: Plasma pharmacokinetics after intraperitoneal injection in mouse (UPLC-MS/MS)
# Assay type: in vivo
# experimental context: male, ICR, mouse, plasma, ip, 10 mg/kg, IP 10 mg/kg, 0.167 h; read-out: Plasma concentration, individual mice 1-3
observable: concentration at 0.167 h (ng/mL)

(P) CCCCC1=CCC[C@@]2(C)CC[C@@H]3C[C@]12OC3(C)C [BAF, 4-butyl-α-agarofuran, reference compound]
(Q) CC1(C)O[C@]23C[C@H]1CC[C@]2(C)CCC=C3CCCC(F)(F)F
[in] Which record would sort first by descending concentration at 0.167 h, P or Q ? Kindly state the label of the option you pick.
[out] Q
(Q: 341 ng/mL, P: 201 ng/mL)
